# System: MET
# Test: MET biochemical kinase assay
# Parameters: species or system human; concentration or dose not given beside the values
Sorting guide: entries reporting Met Kinase % Inhibition beneath 40% go in the true pile, the rest go in the false pile.

Molecule	Target system	Classification
CC(=O)Oc1ccc(C=C2C(=O)Nc3c(Br)cc(Br)cc32)cc1OC(C)=O [10723/A05]	MET	false
O=C1Nc2c(Br)cc(Br)cc2C1=Cc1ccc(N2CCCC2)cc1 [10729/A10]	MET	true
COc1ccc(C=C2C(=O)Nc3c(Br)cc(Br)cc32)cc1OC [10720/A04]	MET	false
O=C1Nc2ccc(S(=O)(=O)Nc3ccc(C(F)(F)F)cc3)cc2C1=Cc1coc2ccc([N+](=O)[O-])cc2c1=O [10731/E07]	MET	false
CNS(=O)(=O)c1ccc2c(c1)C(=Cc1ccc(OC)cc1O)C(=O)N2 [10723/D09]	MET	false
COc1cccc(O)c1C=C1C(=O)Nc2ccc(S(=O)(=O)Nc3ccc(C(F)(F)F)cc3)cc21 [10717/E10]	MET	true
CC(C)(C)c1cc(C=C2C(=O)Nc3ccc(CCCl)cc32)ccc1O [10721/G09]	MET	true
O=C1Nc2ccc(S(=O)(=O)N3CCOCC3)cc2C1=Cc1cc2c(cc1Cl)OCO2 [10727/F06]	MET	true
O=C(O)COc1ccccc1C=C1C(=O)Nc2ccc(S(=O)(=O)Nc3ccc(C(F)(F)F)cc3)cc21 [10728/E10]	MET	false
CNS(=O)(=O)c1ccc2c(c1)C(=CC1C=CCCC1)C(=O)N2 (stereo not drawn) [10729/D11]	MET	true
CNS(=O)(=O)c1ccc2c(c1)C(=Cc1ccc(Cl)s1)C(=O)N2 [10721/D07]	MET	true
CC(C)(C)c1cc(C=C2C(=O)Nc3ccc(CCCl)cc32)cc(I)c1OCc1ccccc1 [10733/G02]	MET	false
COc1ccc(C=C2C(=O)Nc3ccc(S(=O)(=O)N4CCOCC4)cc32)cc1 [10726/F11]	MET	false
CNS(=O)(=O)c1ccc2c(c1)C(=Cc1cc(C(C)(C)C)c(OC)c(C(C)(C)C)c1)C(=O)N2 [10733/D04]	MET	true
O=C1Nc2ccc(CCCl)cc2C1=Cc1cc(C(F)(F)F)ccc1F [10728/G08]	MET	false
CNS(=O)(=O)c1ccc2c(c1)C(=Cc1sccc1Br)C(=O)N2 [10725/D02]	MET	true
CC(C)(C)c1cc(C=C2C(=O)Nc3c(Br)cc(Br)cc32)cc(Cl)c1O [10722/A08]	MET	false
